target: human PD-1 (wild-type), expressed on cells (human, UniProt Q15116 25-288); assay: cell-based or functional assay
Sequence (Q15116 25-288 limits assumed): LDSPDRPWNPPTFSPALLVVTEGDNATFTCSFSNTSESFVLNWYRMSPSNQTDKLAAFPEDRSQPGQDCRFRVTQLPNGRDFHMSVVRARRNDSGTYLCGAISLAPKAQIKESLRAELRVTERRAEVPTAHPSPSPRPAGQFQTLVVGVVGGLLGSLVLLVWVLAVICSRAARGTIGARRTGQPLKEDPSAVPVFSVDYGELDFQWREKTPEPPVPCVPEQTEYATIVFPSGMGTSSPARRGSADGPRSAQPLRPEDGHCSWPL
Measured Attribute: Cell-cell contact assay (ng/mL)
// note: answer is a bare numeric in ng/mL

I'd like to know its Cell-cell contact assay. The binder in question is HM242-D1 (antibody, human IgG1, V domains shown, also called humanized HM242, VH ver.D / VL ver.1) VH: QVQLVQSGPEVKKPGASVKVVCKASGYTFTSYYIQWVRQVPGQGLEWMGWIYPGDGTTKYNEKFKGRVTMTIDTSTSTAYMELRSLRSDDTAVYYCASYYGSYFDYWGQGTLVTVSS VL: DIQMTQTTSSLSASVGDRVTITCRASQDISNYLNWYQQKPDGTVTLLIYYTSKLHSGVPSRFSGSGSGTDYTLTISSLEQKDFATYYCQQSSTLPFTFGQGTKLEIK 24.8

I'd like to know its Cell-cell contact assay. The binder in question is HM242-A1 (antibody, human IgG1, V domains shown, also called humanized HM242, VH ver.A / VL ver.1) VH: QVQLVQSGPELVKPGASVKVVCKASGYTFTSYYIQWVKQRPGQGLEWIGWIYPGDGTTKYNEKFKGKTTLTIDKSTRTAYMELRSLRSDDTAVYYCASYYGSYFDYWGQGTLVTVSS VL: DIQMTQTTSSLSASVGDRVTITCRASQDISNYLNWYQQKPDGTVTLLIYYTSKLHSGVPSRFSGSGSGTDYTLTISSLEQKDFATYYCQQSSTLPFTFGQGTKLEIK 13.1

I'd like to know its Cell-cell contact assay. The binder in question is HM242-D2 (antibody, human IgG1, V domains shown, also called humanized HM242, VH ver.D / VL ver.2) VH: QVQLVQSGPEVKKPGASVKVVCKASGYTFTSYYIQWVRQVPGQGLEWMGWIYPGDGTTKYNEKFKGRVTMTIDTSTSTAYMELRSLRSDDTAVYYCASYYGSYFDYWGQGTLVTVSS VL: DIQMTQSPSSLSASVGDRVTITCRASQDISNYLNWYQQKPDGTVTLLIYYTSKLHSGVPSRFSGSGSGTDYTLTISSLQPEDFATYYCQQSSTLPFTFGQGTKLEIK 33.3

I'd like to know its Cell-cell contact assay. The binder in question is HM242-C2 (antibody, human IgG1, V domains shown, also called humanized HM242, VH ver.C / VL ver.2) VH: QVQLVQSGPEVKKPGASVKVVCKASGYTFTSYYIQWVKQRPGQGLEWIGWIYPGDGTTKYNEKFKGRVTMTIDKSTRTAYMELRSLRSDDTAVYYCASYYGSYFDYWGQGTLVTVSS VL: DIQMTQSPSSLSASVGDRVTITCRASQDISNYLNWYQQKPDGTVTLLIYYTSKLHSGVPSRFSGSGSGTDYTLTISSLQPEDFATYYCQQSSTLPFTFGQGTKLEIK 18.1
